Tested on: Bacillus subtilis
assay_comment: cleaved RNA product abundance (RNA/gDNA barcode ratio) relative to median wild-type variant (ratio to wild type); higher = more accumulation of the downstream cleavage product
condition_summary: experiment (reporter, strain, medium): exp 2b: truncated aprE reporter, strain BJT200; cleavage site: cggR-gapA (positions -7 to +36 mutated)
// reported cleaved RNA product abundance per item
Answer using only a numeral; do not append any unit.

Consider the worked cases shown below.
residues | tested_system | quantity_measured | recorded_value
ACAGACGAAGGAGCCGCAAAGAAGTTATTTAGGGATTAATAATCCCTCAATATAAATATCTCTCACTTATTTAAA | Bacillus subtilis | cleaved RNA product abundance | 0.951
ACAGACGAAGGAGCCGCAAAGAAGTTATTAAGGGATGAATTATCCCTCAATATAAATATCTCTCACTTATTTAAA | Bacillus subtilis | cleaved RNA product abundance | 0.687
ACAGACGAAGGAGCCGCAAACAAGTTATTAAGAGATGAATAATCCCTCAATATAAATATCTCTCACTTATTTAAA | Bacillus subtilis | cleaved RNA product abundance | 0.0959

Supply cleaved RNA product abundance measured with Bacillus subtilis for `ACAGACGAAGGAGCCGCAAAGAAGTGATTAAGGGATTAATAATCCCTCAATATAAATATCTCTCACTTATTTAAA` .
0.459

State cleaved RNA product abundance (Bacillus subtilis) of `ACAGACGAAGGAGCCGCAAAGAAGTTATTAAGGGATGAAAAATCCCTAAATATAAATATCTCTCACTTATTTAAA` .
0.499

# return cleaved RNA product abundance for `ACAGACGAAGGAGCCGCAAAGAAGTTCTTAAGGGATGAATGATCCCTCAATATAAATATCTCTCACTTATTTAAA` , test system: Bacillus subtilis
0.107

Given `ACAGACGAAGGAGCCGCAAAGAAGTTATTAACGGATGTATAATCCCTCAATATAAATATCTCTCACTTATTTAAA` , report its cleaved RNA product abundance on Bacillus subtilis.
0.124

====

Test system: Bacillus subtilis
assay_comment: cleaved RNA product abundance (RNA/gDNA barcode ratio) relative to median wild-type variant (ratio to wild type); higher = more accumulation of the downstream cleavage product
condition_summary: experiment (reporter, strain, medium): exp 8a: truncated aprE reporter, strain BJT201 with 2% xylose (RNase J1 expressed); cleavage site: glnRA (positions -5 to +31 mutated)
quantity_measured: cleaved RNA product abundance
Keep the answer to the number alone.

Example results:
residues | cleaved RNA product abundance
CGACATGTCCCGCTTCTTTCATTAATCCGTTAGTAACTGTTTTGCTATATACATTTACATTTTAAGAGGAGGAAT | 0.433
CGACATGTCCCGCTTCTTTCATTAATCCGTTAACAACTGTTATGCTATATACATTTACCTTTTAAGAGGAGGAAT | 0.219
CGACATGTCCCGCTTCTTTCATTAATCCGTTACCAACTGTTTTACTATATACATTTACCTTTTAAGAGGAGGAAT | 0.204

Supply cleaved RNA product abundance value. Item: `CGACATGTCCCGCTTCTTTCATTAATCCGTTAGCAACTGTTTTGCTATTTACACTTACCTTTTAAGAGGAGGAAT`
0.12

====

System: Bacillus subtilis
assay_comment: cleaved RNA product abundance (RNA/gDNA barcode ratio) relative to median wild-type variant (ratio to wild type); higher = more accumulation of the downstream cleavage product
condition_summary: experiment (reporter, strain, medium): exp 2b: truncated aprE reporter, strain BJT200; cleavage site: cggR-gapA (positions -7 to +36 mutated)
quantity_measured: cleaved RNA product abundance
Answer field: number only, no words.

Worked examples, 6 sequences total:
residues | recorded_value
ACAGACGAAGGAGCCGCAAAGATGTTATTAAGGGATGAATAATCCGTCAATATAAATATCTCTCACTTATTTAAA | 0.113
ACAGACGAAGGAGCCGCAAAAAAGTTATTAAGGGGTGAATAATCCCTCAATATAAATATCTCTCACTTATTTAAA | 0.759
ACAGACGAAGGAGCCGCAAAGAAGTTACTAAGGGGTGAATAATCCCTCAATATAAATATCTCTCACTTATTTAAA | 0.144
ACAGACGAAGGAGCCGCAAAGAAGTTATTAGGGGATGAATAATCCCTCAAAATAAATATCTCTCACTTATTTAAA | 0.351
ACAGACGAAGGAGCCGCAAAGAAGTTATTAAGGGATGAATAATCCCACAAGATAAATATCTCTCACTTATTTAAA | 0.158
ACAGACGAAGGAGCCGCAAAGAAGTTATTAAGGGATGAATCATCCCTCAATATAAATATCTCTCACTTATTTAAA | 0.721

Let's switch to this sequence now.
Consider the sequence `ACAGACGAAGGAGCCGCAAAGAAGTTATTAAGGGATGAATCATCCCTCAATTTAAATATCTCTCACTTATTTAAA` tested on Bacillus subtilis; state its cleaved RNA product abundance.
0.169

====

Tested on: Bacillus subtilis
assay_comment: cleaved RNA product abundance (RNA/gDNA barcode ratio) relative to median wild-type variant (ratio to wild type); higher = more accumulation of the downstream cleavage product
condition_summary: experiment (reporter, strain, medium): exp 8a: truncated aprE reporter, strain BJT201 with 2% xylose (RNase J1 expressed); cleavage site: glnRA (positions -5 to +31 mutated)
Entry flag: rule met if cleaved RNA product abundance reaches 0.6; rule not met if it does not.

Known results for sequences:
residues | class_name
CGACATGTCCCGCTTCTTTCATTAATCCGTTAGCAACTTTTTGGCTATATACATTTACCTTTTAAGAGGAGGAAT | rule not met
CGACATGTCCCGCTTCTTTCATTAATCCGTTAGCAACAGTTTTGCTATACACATTTACCTTTTAAGAGGAGGAAT | rule not met
CGACATGTCCCGCTTCTTTCATTAATCCGTTAGCAACTATTTTGTTATATACATTTACCTTTTAAGAGGAGGAAT | rule not met
CGACATGTCCCGCTTCTTTCATTACTCCGTTAGCAACTGTTTTGCTATATCCATTTACCTTTTAAGAGGAGGAAT | rule not met
CGACATGTCCCGCTTCTTTCATTAATGCGTTAGCAACTGTTTTGGTATATACATTTACCTTTTAAGAGGAGGAAT | rule not met

For this sequence, is measured cleaved RNA product abundance 0.6 or higher? `CGACATGTCCCGCTTCTTTCATTAATCCGTTAGCTGCTGTTTTGCTATATACATTTACCTTTTAAGAGGAGGAAT`
rule met

====

Tested on: Bacillus subtilis
assay_comment: cleaved RNA product abundance (RNA/gDNA barcode ratio) relative to median wild-type variant (ratio to wild type); higher = more accumulation of the downstream cleavage product
condition_summary: experiment (reporter, strain, medium): exp 2b: truncated aprE reporter, strain BJT200; cleavage site: cggR-gapA (positions -7 to +36 mutated)
quantity_measured: cleaved RNA product abundance
A bare number is all that is needed in reply.

residues | tested_system | cleaved RNA product abundance
ACAGACGAAGGAGCCGCAAAGAAGTTATTAAGGGATGTATAATCCCTCAATATATATATCTCTCACTTATTTAAA | Bacillus subtilis | 0.631
ACAGACGAAGGAGCCGCAAAGAAATTATTAAGGGATGAATAATACCTCAATATAAATATCTCTCACTTATTTAAA | Bacillus subtilis | 0.141
ACAGACGAAGGAGCCGCAAAGAAGTTATTAAGGAATGAATAATCCCTCAATATAAATATCTCTCACTTATTTAAA | Bacillus subtilis | 0.109

Please list cleaved RNA product abundance recorded for the sequence `ACAGACGAAGGAGCCGCAAAGAAGTTATTAAGGGATGAATAATCCCTCAATAGAAATATCTCTCACTTATTTAAA`
0.164

====

Test system: Bacillus subtilis
assay_comment: cleaved RNA product abundance (RNA/gDNA barcode ratio) relative to median wild-type variant (ratio to wild type); higher = more accumulation of the downstream cleavage product
condition_summary: experiment (reporter, strain, medium): exp 4a: truncated aprE reporter, strain BJT201 with 2% xylose (RNase J1 expressed); cleavage site: cggR-gapA (positions -7 to +36 mutated)
Reported cleaved RNA product abundance values follow for various sequences
Lab note: jot the number down without any unit.

These recorded examples may help you get a feel for the data.
residues | cleaved RNA product abundance
ACAGACGAAGGAGCCGCAAAGAAGTTATTAAGGGAAGAATTATCCCTCAATATAAATATCTCTCACTTATTTAAA | 0.771
ACAGACGAAGGAGCCGCAAAGAAGTTATTAAGGGATCAATAATTCCTCAATATAAATATCTCTCACTTATTTAAA | 0.22
ACAGACGAAGGAGCCGCAAAGAAGTGATTAAGGGATGAATTATCCCTCAATATAAATATCTCTCACTTATTTAAA | 0.366
ACAGACGAAGGAGCCGCAAAGAACTTATTAAGGGATGAATAATCCCCCAATATAAATATCTCTCACTTATTTAAA | 0.25
ACAGACGAAGGAGCCGCAAAGAAGTTATTAATGGATGAATAATCCCTCAATATAGATATCTCTCACTTATTTAAA | 0.215

Output reported cleaved RNA product abundance of the sequence `ACAGACGAAGGAGCCGCAAAGAACTTATAAAGGGATGAATAATCCCTCAATATAAATATCTCTCACTTATTTAAA` on Bacillus subtilis.
0.263

Report value only: cleaved RNA product abundance, Bacillus subtilis, `ACAGACGAAGGAGCCGCAAAGGAGTTATTAAGGGATGAAAAATCCCTCAATATAAATATCTCTCACTTATTTAAA`
0.576

Quote cleaved RNA product abundance with test system Bacillus subtilis for `ACAGACGAAGGAGCCGCAAAGAAGTTTTTAAAGGATGAATAATCCCTCAATATAAATATCTCTCACTTATTTAAA`
0.192

Specify cleaved RNA product abundance for `ACAGACGAAGGAGCCGCAAAGAAGTTATTAAGGGATCAATACTCCCTCAATATAAATATCTCTCACTTATTTAAA` , system Bacillus subtilis.
0.579

Fetch value of cleaved RNA product abundance on Bacillus subtilis for `ACAGACGAAGGAGCCGCAAAGAAGTTATTTAGGGATGAATAATCCCACAATATAAATATCTCTCACTTATTTAAA` .
0.268

# assay system Bacillus subtilis: give cleaved RNA product abundance of `ACAGACGAAGGAGCCGCAAAGAAGTTATTAAGGGCTGAATAATCCCCCAATATAAATATCTCTCACTTATTTAAA`
0.157

Tell me its cleaved RNA product abundance on Bacillus subtilis: `ACAGACGAAGGAGCCGCAAAGAAGTAATTAAGGGATGAATAATCCCTCAATATAAATTTCTCTCACTTATTTAAA`
0.122

Would you please give the reported cleaved RNA product abundance of `ACAGACGAAGGAGCCGCAAAGAAGTTATTAAGGGATGAATAAACCCTCAATATAAATAACTCTCACTTATTTAAA` with Bacillus subtilis?
0.464

Give Bacillus subtilis cleaved RNA product abundance for the following sequence: `ACAGACGAAGGAGCCGCAAATAAGTTATTAAGGGATGAATAACCCCTCAATATAAATATCTCTCACTTATTTAAA`
0.494

Using Bacillus subtilis as the test system, report measured cleaved RNA product abundance of `ACAGACGAAGGAGCCGCAAAAAAGTTATTAAGGAATGAACAATCCCTCAATATAAATATCTCTCACTTATTTAAA` .
0.182

Give cleaved RNA product abundance; test system Bacillus subtilis; sequence `ACAGACGAAGGAGCCGCAAAGAAGTTATTAAGGGATGAAAAATCCCTCAATATAATTATCTCTCACTTATTTAAA`
0.171

# return cleaved RNA product abundance for `ACAGACGAAGGAGCCGCAGAGAAGTTATTAAGAGATGAATAATCCCTCAATATAAATATCTCTCACTTATTTAAA` , test system: Bacillus subtilis
0.118

Send back Bacillus subtilis cleaved RNA product abundance of `ACAGACGAAGGAGCCGCAAAGAAATTATTAAGGGATGAATAATCCCTCTATATAAATATCTCTCACTTATTTAAA` only.
0.319

Find the measured cleaved RNA product abundance of `ACAGACGAAGGAGCCGCAAAGAAGTTATTAAGGGATGAGTAATCCCTCCATATAAATATCTCTCACTTATTTAAA` with Bacillus subtilis as test system.
0.164
